target-or-system: biotin-labeled human IL1RAP (human) (UniProt Q9NPH3)
Sequence (Q9NPH3 21-367 limits assumed): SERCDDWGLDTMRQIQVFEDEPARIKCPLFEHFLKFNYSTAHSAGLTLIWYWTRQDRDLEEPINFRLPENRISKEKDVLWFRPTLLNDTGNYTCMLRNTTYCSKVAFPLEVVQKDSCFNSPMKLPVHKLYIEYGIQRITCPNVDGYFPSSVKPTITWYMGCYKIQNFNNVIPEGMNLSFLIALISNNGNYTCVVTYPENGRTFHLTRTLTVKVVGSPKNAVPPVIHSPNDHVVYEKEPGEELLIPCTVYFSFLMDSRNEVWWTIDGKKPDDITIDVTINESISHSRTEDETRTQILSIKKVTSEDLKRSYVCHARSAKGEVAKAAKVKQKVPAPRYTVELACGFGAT
measurement-notes: competition ELISA; competitor: capture mAb048 coated; biotin-hIL1RAP
observable: % inhibition (%)
Write the answer as a number in %, unit excluded.

Which measured % inhibition value corresponds to murine mAb117 (antibody, V domains shown) VH: QAYLQQSGAELVRPGASVKMSCKASGYTFTSYNMHWVKQSPRQGLEWVGVFYLGNGDTSYNEKFKGKATLTVDKSSSTAYMQLSSLTSEDSAVYFCARPGGYANWYFDVWGTGTTVTVSS VL: DIVMTQSQKFMSTSVGDWVSVTCKASQNVGTEVSWYQQKPGQSPNTLIYSASYRHSGVPDRFTGSGSGTEFTLTITNVQSEDLADYFCQQYNSFPLTFGAGTKLDLK ?
83

# query: % inhibition of entry murine mAb016 (antibody, V domains shown) VH: QVQLQQPGAELVRPGSSVKLSCKASGYTFTSYWMDWVKQRPGQGLEWIGNIYPSDSATHYNQKFKDKATLTIDKSSSTAYMQLSSLTSEDSAVYYCARDYYGSIGMDSWGQGTSVTVSS VL: DIQMTQSPSSLSASLGERVSLTCRASQEISDYLSWLQQKPDGTIKRLIYAASTLDSGVPKRFSGSRSGSDYSLTISSLESEDFADYYCLQYASFPWTFGGGTKLEIK
78

Which % inhibition value belongs to murine mAb048 (antibody, V domains shown) VH: QVQLQQPGADLVKPGASVKLSCKAYGYTFFSYWMHWVRQRPGQGLEWIGMIHPNSGTTNNNEKFKSKATLTVDKSFSTAYMQLSSLTSEDSAVYYCARGYSNYDFDYWGQGTILTVSS VL: DIKMTQFPSSMYASLGERVTITCKASQDINTYLIWIQQKPGKSPKTLIYRANRLADGVPSRFSGSGSGQDSSLTISSLEHEDMGIYYCLQYDEFPYTFGGGTKLEIK ?
84

Suppose we examine the binder murine mAb067 (antibody, V domains shown) VH: QVKLHQSGAELAKPGASVKMSCKASGYTFNSYWIHWVKQRPGQGLEWIGYNNPTSGYSEYNQKFTDKATLSADKSSSTAYMQLSSLTSEDSAVYYCVREYGDLFAYWGQGTLVTVSA VL: NIVMTQSPKSMSMSVGERVTLSCKASENVGYSVSWFQQKPDQSPKLLIYGASNRYTGVPDRFTGSGSATDFTLTISTVQAEDLADYHCGQIYIYPYTFGGGTKLEIK ; what % inhibition value has been reported?
83

State the recorded % inhibition for this entry: mAb063 (antibody, V domains shown) VH: EVQLQQSGPELVKPGASVKISCKASGYTFTDYYMNWVKQSHGKSLEWIGHINPNSGSTTYTEKFKDKATLTVDKSSSTAYMELRSLTSDDSAVYYCVRRIGKNWHCDVWGTGTTVTVSS VL: DIVLTQSPASLAVSLGQRATISCRASESVNFHGTHLMHWYQQKPGQAPKLLIYAASNLDSGVPARFSGSGSETDFTLNIHPVEEEDAATYFCQQSIEDPFTFGSGTYLEIK
82

Reported % inhibition for murine mAb001 (antibody, V domains shown) VH: QVQLQQPGAELVRPGSSVKLSCKASGYTFTSYWMDWVKQRPGQGLEWIGNIYPSDSKTHYNQKFKDKATLTVDKSSSTAYMQLSSLTSEDSAVYYCARDYYGSIGMDYWGQGTSVTVSS VL: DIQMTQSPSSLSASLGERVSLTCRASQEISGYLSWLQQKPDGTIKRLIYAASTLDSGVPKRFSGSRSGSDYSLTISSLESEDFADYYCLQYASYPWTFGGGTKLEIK : what is it?
68
